- assay.target: cynomolgus PAI-1 (cynomolgus, UniProt P05121 24-402 (human entry), limits assumed)
- assay.remarks: cell-based or functional assay
# strict inequality: IC50 ratio cyno/human < 0.4 yields Yes, everything else yields No

Q: Quick check: IC50 ratio cyno/human of Antibody 22, scFv (scFv, V domains shown) VH: QVQLQQSGAEVKKPGSSVKVSCKASGGTFSGYAISWVRQAPGQGLEWMGGIIPTFGTANYSQKFQGRVTITADESTSTAYMELSGLRSEDTAVYYCAREKRQWLEGHFDYWGRGTPVTVSS VL: DIQMTQSLSFLSASIGDRVTITCRASEGIYHALAWYQQKPGKAPKLLIYRASSLASGAPSRFSGSGSGTDFTLTISSLQPDDFATYYCQQYSNYPLTFGGGTKLEIK under 0.4?
A: Yes

Q: Moving on to Antibody 24, scFv (scFv, V domains shown) VH: QVQLQQSGAEVKKPGSSVKVSCKASGGTFSSYAISWVRQAPGQGLEWMGGIIPTFVTANYAQKFQGRVSITADESTSTAYMELSGLRSEDTAVYYCAREKRQWLEGHFDYWGRGTPVTVSS VL: DIQMTQSPSFLSASIGDRVTITCRASEGIYHALAWYQQKPGKAPKLLIYRASSLASGAPSRFSGSGSGTDFTLTISSLQPDDFATYYCQQYSNYPLTFGGGTKLEIK
A: Yes

Q: Moving on to Antibody 07, scFv (scFv, V domains shown) VH: QVQLQQSGAEVKKPGSSVKVSCKASGGTFSSYAISWVRQAPGQGLEWVGGIIPTFGTANYAQKFQGRVTITADESTSTAYMELSGLRSEDTAVYYCAREKRQWLEGHFDYWGRGTPVTVSS VL: DIQMAQSPSFLSASIGDRVTITCRASEGIYHELAWYQQKPGKAPKLLIYRASSLASGAPSRFSGSGSGTDFTLTISSLQPDDFATYYCQQYSNYPLTFGGGTKLEIK
A: No

Q: Moving on to Antibody 17, scFv (scFv, V domains shown) VH: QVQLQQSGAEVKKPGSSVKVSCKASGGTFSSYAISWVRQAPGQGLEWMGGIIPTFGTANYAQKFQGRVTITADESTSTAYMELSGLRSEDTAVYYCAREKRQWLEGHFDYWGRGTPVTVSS VL: DIQMTQSPSFLSASIGDRVTITCRASEGIYHELAWYQQKPGKAPKLLIYRASSLASGAPSRFSGSGSGTDFTLTISSLQPDDFATYYCQQYSNYPLTFGGGTKLEIK
A: No

Q: Moving on to Antibody 20, IgG1, not germlined (antibody, V domains shown, whole IgG1; also called Ab 20) VH: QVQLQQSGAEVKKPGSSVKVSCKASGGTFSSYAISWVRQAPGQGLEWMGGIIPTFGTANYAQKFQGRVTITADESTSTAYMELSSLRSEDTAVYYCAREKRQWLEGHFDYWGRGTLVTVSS VL: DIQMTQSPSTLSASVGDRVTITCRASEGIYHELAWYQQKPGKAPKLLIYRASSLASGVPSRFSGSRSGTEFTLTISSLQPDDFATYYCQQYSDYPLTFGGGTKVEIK
A: No

Q: Moving on to Antibody 02, scFv (scFv, V domains shown) VH: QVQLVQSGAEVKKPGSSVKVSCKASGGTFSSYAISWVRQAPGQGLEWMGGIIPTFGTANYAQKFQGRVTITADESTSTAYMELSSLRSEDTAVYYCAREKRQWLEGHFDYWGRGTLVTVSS VL: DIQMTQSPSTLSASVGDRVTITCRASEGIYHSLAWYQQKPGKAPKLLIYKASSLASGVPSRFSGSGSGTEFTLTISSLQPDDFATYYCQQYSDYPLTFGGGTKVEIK
A: No
